Reference source for all entries: the supplement of paper PMC12420376

System: OVCAR8
Test: drug sensitivity score (DSS2) on cancer cell count; higher = more sensitive; extreme values may be limits of the assay
Details: co-cultured fibroblast: BJHTERT; 72 h
Measure: drug sensitivity score (DSS)
State just the number; it will be interpreted in DSS.

For orientation, consider the following solved cases.
Test Smiles: C[C@@H](Oc1cc(-c2cnn(C3CCNCC3)c2)cnc1N)c1c(Cl)ccc(F)c1Cl
drug sensitivity score [DSS]: 0.7
//
Test Smiles: Cc1cc(Nc2ncc(Cl)c(Nc3ccccc3S(=O)(=O)C(C)C)n2)c(OC(C)C)cc1C1CCNCC1
drug sensitivity score [DSS]: 1.8

We now examine a further molecule.
### Prompt Fill in: drug sensitivity score of `COc1cccc2c1C(=O)c1c(O)c3c(c(O)c1C2=O)C[C@@](O)(/C(CO)=N/NC(=O)CCCCCN1C(=O)C=CC1=O)C[C@@H]3O[C@H]1C[C@H](N)[C@H](O)[C@H](C)O1` is ___
### Response 12.9

###

System: OVCAR8
Experiment: drug sensitivity score (DSS2) on cancer cell count; higher = more sensitive; extreme values may be limits of the assay
Conditions: co-cultured fibroblast: BJHTERT; 72 h
Classification field: 1 = drug sensitivity score at or over 4 DSS; -1 = drug sensitivity score under 4 DSS.

Example entries begin here.
Test Smiles: Nc1cc(C(F)(F)F)c(-c2cc(N3CCOCC3)nc(N3CCOCC3)n2)cn1
Assigned Category: 1
--
Test Smiles: CO[C@H]1C(=O)[C@]2(C)[C@@H](OC)C[C@H]3OC[C@@]3(OC(C)=O)[C@H]2[C@H](OC(=O)c2ccccc2)[C@]2(O)C[C@H](OC(=O)[C@H](O)[C@@H](NC(=O)OC(C)(C)C)c3ccccc3)C(C)=C1C2(C)C
Assigned Category: 1
--
Test Smiles: CCN(CC)CCOc1ccc(C(=C(Cl)c2ccccc2)c2ccccc2)cc1
Assigned Category: 1

### Prompt Does `Nc1ccn([C@@H]2O[C@H](CO)[C@@H](O)[C@@H]2O)c(=O)n1` have a reported drug sensitivity score of at least 4 DSS?
### Response 1

### Prompt State whether the measured drug sensitivity score reaches 4 DSS, counting equality as reaching it, for `CCNC(=O)CCC/C=C\C[C@@H]1[C@@H](/C=C/[C@@H](O)CCc2ccccc2)[C@H](O)C[C@@H]1O`
### Response -1

###

Tested on: KURAMOCHI
Experiment: drug sensitivity score (DSS2) on cancer cell count; higher = more sensitive; extreme values may be limits of the assay
Settings: co-cultured fibroblast: BJHTERT; 72 h
Mark NO for drug sensitivity score values under 1 DSS, and YES for everything at or above.

Solved entries:
Test Smiles: CC[C@@H]1C(=O)N(C)c2cnc(Nc3ccc(C(=O)N[C@H]4CC[C@H](N5CCN(CC6CC6)CC5)CC4)cc3OC)nc2N1C(C)C
Assigned Category: YES
--
Test Smiles: COc1cc2c(cc1-c1c(C)noc1C)ncc1[nH]c(=O)n([C@H](C)c3ccccn3)c12
Assigned Category: YES
--
Test Smiles: CN(CC(=O)N(Cc1ccc(C2CCCCC2)cc1)c1ccc(C(=O)O)cc1)S(=O)(=O)c1c(F)c(F)c(F)c(F)c1F
Assigned Category: YES
--
Test Smiles: O=C(CCCCCCC(=O)Nc1ccccc1)NO
Assigned Category: YES
--
Test Smiles: Cc1ccc(-c2cc(C(F)(F)F)nn2-c2ccc(S(N)(=O)=O)cc2)cc1
Assigned Category: NO

### Prompt Textbook exercise: given the entry `CN1CC[C@@H](NC(=O)Nc2ccc(C#N)cc2)C[C@@H]1c1nc2ccccc2[nH]1` , state whether its drug sensitivity score is greater than or equal to 1 DSS.
### Response NO

### Prompt Form field: drug sensitivity score at least 1 DSS? Entry: `CN1CCN(c2ccc3nc(-c4c(N)c5c(F)cccc5[nH]c4=O)[nH]c3c2)CC1`
### Response NO

###

drug sensitivity score listing for selected compounds.
Test system: KURAMOCHI
Assay: drug sensitivity score (DSS2) on cancer cell count; higher = more sensitive; extreme values may be limits of the assay
Details: co-cultured fibroblast: BJHTERT; 72 h
Express your answer in DSS, writing the number without its unit.

Compound: NC(=S)N/N=C/c1ncccc1N [Triapine]
Quantity Unit: DSS
drug sensitivity score: 4.5
//
Compound: CCNC(=O)CCC/C=C\C[C@@H]1[C@@H](/C=C/[C@@H](O)CCc2ccccc2)[C@H](O)C[C@@H]1O [Bimatoprost]
Quantity Unit: DSS
drug sensitivity score: 0
//
Compound: O=C1CN2Cc3c(ccc(Cl)c3Cl)N=C2N1 [Anagrelide]
Quantity Unit: DSS
drug sensitivity score: 0
//
Compound: Cc1ccc(C(=O)Nc2ccc(CN3CCN(C)CC3)c(C(F)(F)F)c2)cc1C#Cc1cnc2cccnn12 [Ponatinib]
Quantity Unit: DSS
drug sensitivity score: 8.3
//
Compound: COc1cccc2c1c(O)c(C(=O)N(C)c1ccc(C(F)(F)F)cc1)c(=O)n2C [Tasquinimod]
Quantity Unit: DSS
drug sensitivity score: 0

Here's the next entry for you.
### Prompt So what drug sensitivity score did O=C(/C=C\n1cnc(-c2cc(C(F)(F)F)cc(C(F)(F)F)c2)n1)NNc1cnccn1 [Selinexor] get with KURAMOCHI?
### Response 17.1

###

Tested on: KURAMOCHI
Test: drug sensitivity score (DSS2) on cancer cell count; higher = more sensitive; extreme values may be limits of the assay
Conditions: co-cultured fibroblast: WI38; 72 h
Recorded drug sensitivity score, one value per entry.
Please give a number only; it is taken to be in DSS.

// known answers, use as guide
Molecule: CNc1ncc2cc(-c3cc(NC(=O)NCCC(C)(C)C)c(F)cc3C)c(C)nc2n1
drug sensitivity score / DSS: 10.2
--
Molecule: O=C(Nc1cccc(NC(=O)c2cccc(O)c2O)c1)c1cccc(O)c1O
drug sensitivity score / DSS: 9.8

### Prompt Data request, read-out drug sensitivity score, for COc1cc([C@@H]2c3cc4c(cc3[C@@H](O[C@@H]3O[C@@H]5CO[C@@H](c6cccs6)O[C@H]5[C@H](O)[C@H]3O)[C@H]3COC(=O)[C@H]23)OCO4)cc(OC)c1O [Teniposide]
### Response 0

### Prompt I would be grateful if you could share the reported drug sensitivity score for `Cc1cc(Nc2cc(CN3CCOCC3)c3nc(C)c(Cc4ccc(Cl)cc4F)n3n2)n[nH]1` .
### Response 3.7

### Prompt Record request: drug sensitivity score value, item `CC(C)[C@@H](CS(=O)(=O)C(C)C)N1C(=O)[C@@](C)(CC(=O)O)C[C@H](c2cccc(Cl)c2)[C@H]1c1ccc(Cl)cc1`
### Response 0

###

System: KURAMOCHI
Assay: drug sensitivity score (DSS2) on cancer cell count; higher = more sensitive; extreme values may be limits of the assay
Conditions: co-cultured fibroblast: BJHTERT; 72 h
# drug sensitivity score annotations
Write it as a number; the unit DSS goes unstated.

Test Smiles: CC(C)C[C@H](NC(=O)CNC(=O)c1cc(Cl)ccc1Cl)B(O)O
Quantity Unit: DSS
drug sensitivity score: 1

Test Smiles: COc1cc(N2CCC(N3CCN(C)CC3)CC2)ccc1Nc1ncnc(Nc2ccccc2S(=O)(=O)C(C)C)n1
Quantity Unit: DSS
drug sensitivity score: 7.7

Test Smiles: C[C@@H](Oc1cc(-c2cnn(C3CCNCC3)c2)cnc1N)c1c(Cl)ccc(F)c1Cl
Quantity Unit: DSS
drug sensitivity score: 0

### Prompt Missing value: drug sensitivity score, KURAMOCHI, entry `COC(=O)c1ccc2c(c1)[nH]c1ncnc(NCCCN3CCCCC3)c12` . Fill in?
### Response 1.1

### Prompt Find drug sensitivity score (KURAMOCHI) for the entry `O=C(c1cc(Cc2n[nH]c(=O)c3ccccc23)ccc1F)N1CCN(C(=O)C2CC2)CC1`
### Response 4.6

### Prompt Provide value of drug sensitivity score for this record tested with KURAMOCHI: `COc1cc(Br)c(Nc2nc(-c3c(C)nc4ncccn34)cs2)c(Br)c1`
### Response 2.4

### Prompt Record `CC#CC(=O)N1CC[C@@H](n2c(=O)n(-c3ccc(Oc4ccccc4)cc3)c3c(N)ncnc32)C1` : what is its drug sensitivity score with KURAMOCHI?
### Response 1.4

### Prompt State its drug sensitivity score on KURAMOCHI: `COc1cc2nccc(Oc3ccc(NC(=O)Nc4cc(C)on4)c(Cl)c3)c2cc1OC`
### Response 5.7

### Prompt Query drug sensitivity score on KURAMOCHI for `CCCCc1nc2cc(/C=C/C(=O)NO)ccc2n1CCN(CC)CC`
### Response 15.7
